Experiment: Ex-vivo skin permeation, Franz diffusion cells
Format: in vitro ADME, Sprague-Dawley rats
Conditions: rat skin, after 48h; mean ± SD, n=3
assay-endpoint: Residual drug in the donor phase (%)

Study these solved cases before continuing.
# molecule, Residual drug in the donor phase, %
rows = [
    ("CCCCCCCCCC(=O)N[C@@H](CCCCN)C(=O)N[C@H](C(=O)O)[C@@H](C)O [Compound C10-KT]", 55.23),
    ("CCCCCCCC(=O)N[C@@H](CCCCN)C(=O)N[C@H](C(=O)O)[C@@H](C)O [Compound C8-KT]", 21.29),
]

a = CCCCCCCCCCCC(=O)N[C@@H](CCCCN)C(=O)N[C@H](C(=O)O)[C@@H](C)O [Compound C12-KT]
b = CCCCCCCCCCCCCCCC(=O)N[C@@H](CCCCN)C(=O)N[C@H](C(=O)O)[C@@H](C)O [Compound C16-KT, reference compound]
Could you tell me which of these two has the smaller Residual drug in the donor phase figure? First: a Second: b In your reply, give the label of the chosen option.
b

Value source: paper PMC11830134
